Molecular target: SAE1 (Homo sapiens (Human))
Sequence (Q9UBE0 whole entry): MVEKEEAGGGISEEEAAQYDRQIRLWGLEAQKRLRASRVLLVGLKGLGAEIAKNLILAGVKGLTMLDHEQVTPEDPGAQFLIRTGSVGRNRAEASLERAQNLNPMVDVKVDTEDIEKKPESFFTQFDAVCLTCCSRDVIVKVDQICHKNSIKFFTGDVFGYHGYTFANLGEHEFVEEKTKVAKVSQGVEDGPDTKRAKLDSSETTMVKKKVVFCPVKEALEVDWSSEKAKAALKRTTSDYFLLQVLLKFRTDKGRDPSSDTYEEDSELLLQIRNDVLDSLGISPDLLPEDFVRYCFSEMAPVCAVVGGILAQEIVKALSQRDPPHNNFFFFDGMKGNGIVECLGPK
Sequence (Q9UBT2 whole entry): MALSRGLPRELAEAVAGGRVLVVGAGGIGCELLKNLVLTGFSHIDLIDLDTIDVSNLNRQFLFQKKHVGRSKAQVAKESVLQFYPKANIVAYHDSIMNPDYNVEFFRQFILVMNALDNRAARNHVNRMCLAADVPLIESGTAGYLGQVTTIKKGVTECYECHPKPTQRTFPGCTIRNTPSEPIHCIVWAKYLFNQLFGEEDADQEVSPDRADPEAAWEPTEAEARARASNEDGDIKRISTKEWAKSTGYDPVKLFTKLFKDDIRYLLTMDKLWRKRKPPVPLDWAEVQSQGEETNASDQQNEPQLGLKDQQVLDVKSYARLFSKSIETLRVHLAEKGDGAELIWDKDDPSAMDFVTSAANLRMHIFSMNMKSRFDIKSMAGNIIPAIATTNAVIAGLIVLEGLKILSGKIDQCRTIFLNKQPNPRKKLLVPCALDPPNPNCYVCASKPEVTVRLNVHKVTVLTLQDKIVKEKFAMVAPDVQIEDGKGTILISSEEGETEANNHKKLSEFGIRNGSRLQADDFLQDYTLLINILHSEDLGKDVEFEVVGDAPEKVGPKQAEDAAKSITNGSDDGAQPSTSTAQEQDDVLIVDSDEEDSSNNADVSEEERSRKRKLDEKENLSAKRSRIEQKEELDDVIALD
READOUT_NAME: pIC50
# pIC50: negative log10 of molar concentration; output just the value

Measured pIC50, CCn1cc(-c2ccccc2[C@@H]2CN(C(=O)/C=C/C(N)C3CC3)Cc3sc(C#N)cc32)c(C(F)(F)F)n1 (stereo partly shown) : 5.08

`CCn1cc(-c2ccccc2[C@@H]2CN(C(=O)/C=C/[C@H](C)N(C)C)Cc3sc(C#N)cc32)c(C(F)(F)F)n1` yielded pIC50 of 5.21

What the record says about CCn1cc(-c2ccccc2C2CN(C(=O)/C=C/CN(C)C)Cc3sc(C#N)c(Cl)c32)c(C(F)(F)F)n1 (stereo not shown) : pIC50 is 5.40

The reported measurements were obtained from patent US20240360148A1.
